assay.details: Partition coefficient (K) in two-phase HSCCC solvent systems
Type: physicochemical
condition.description: n-Hexane-ethyl acetate-methanol-water 4 : 6 : 2.5 : 7.5 (v/v)
attribute.measured: K values

Field: example entries. Status: answers known.
Oc1ccc(/C=C/c2cc(O)cc(O)c2)cc1	4.62
COc1ccc(-c2coc3cc(O)ccc3c2=O)cc1	3.39

(1) Oc1cc(O)cc(/C=C/c2ccc(O)c(O)c2)c1
(2) O=c1c(-c2ccc(O)cc2)coc2cc(O)cc(O)c12
Req: Of 1 and 2 , which shows the smaller K values value? Identify your pick by its label.
Resp: 1
(1: 3.91, 2: 15.01)

###

assay.details: Partition coefficient (K) in two-phase HSCCC solvent systems
Assay type: physicochemical
condition.description: n-Hexane-ethyl acetate-methanol-water 3 : 7 : 4.5 : 5.5 (v/v)
attribute.measured: K values

Oc1cc(O)cc(/C=C/c2ccc(O)c(O)c2)c1	0.34

(A) COc1ccc(-c2coc3cc(O)ccc3c2=O)cc1
(B) Oc1ccc(/C=C/c2cc(O)cc(O)c2)cc1
(C) O=c1c(-c2ccc(O)cc2)coc2cc(O)cc(O)c12
Req: Order the 3 molecules from highest to lowest K values. As an answer, provide the labels arranged in the order called for.
Resp: C, B, A
